Test system: E. coli
Assay: MIC50/90 against small panels (n = 35)
Format: cell-based, Escherichia coli
Parameters: key: A: a MIC value measurement that is the same as that observed for polymyxin B; a MIC value measured that is lower than the comparable value observed for polymxin B; a MIC value measured that is higher than the comparable value observed for polymyxin B
Settings: small panel n = 35, relative to polymyxin B
*1 amine or outer side, *2 acyl side, *3 side chain or, on linkers, in order; H or OH if unused. Where a SMILES comes first, the peptide text is derived from it. Bridges are numbered along the chain shown (N, C = ends). [ ]: non-standard residue; d: D form. The star is where a group is joined. ξ: configuration not given here. Octanoyl(6-Me) = CCC(C)CCCCC(=O)*; Thr(3ξ) = CC(O)[C@H](N)C(=O)O; NH(2-ClPh) = Clc1ccccc1N*; X1 = CC[C@H](C)CCCCC(=O)*; dDab = NCC[C@@H](N)C(=O)O; Dab = NCC[C@H](N)C(=O)O; CO = O=C([*:1])[*:2]; ξDab = NCCC(N)C(=O)O

compound	E. coli MIC50
CC(C)C[C@@H]1NC(=O)[C@@H](Cc2ccccc2)NC(=O)[C@H](CCN)NC(=O)C(NC(=O)[C@H](CCN)NC(=O)[C@@H](NC(=O)[C@H](CCN)NC(=O)Nc2ccccc2Cl)C(C)O)CCNC(=O)[C@H](C(C)O)NC(=O)[C@H](CCN)NC(=O)C(CCN)NC1=O (stereo partly shown) [Formula (II) comparator] ({NH(2-ClPh)-CO}-[Dab][Thr(3ξ)][Dab][ξDab][Dab][dF]L[ξDab][Dab][Thr(3ξ)]; lactam 4-C)	C
CCC(C)CCCCC(=O)N[C@@H](CCN)C(=O)N[C@H](C(=O)N[C@@H](CCN)C(=O)NC1CCNC(=O)[C@H](C(C)O)NC(=O)[C@H](CCN)NC(=O)C(CCN)NC(=O)[C@H](CC(C)C)NC(=O)[C@@H](Cc2ccccc2)NC(=O)[C@H](CCN)NC1=O)C(C)O (stereo partly shown) [Polymyxin B] ({Octanoyl(6-Me)}-[Dab][Thr(3ξ)][Dab][ξDab][Dab][dF]L[ξDab][Dab][Thr(3ξ)]; lactam 4-C)	A
CC[C@H](C)CCCCC(=O)N[C@@H](CCN)C(=O)N[C@H](C(=O)N[C@H](CCN)C(=O)N[C@H]1CCNC(=O)[C@H]([C@@H](C)O)NC(=O)[C@H](CCN)NC(=O)[C@H](CCN)NC(=O)[C@H]([C@@H](C)O)NC(=O)[C@@H](CC(C)C)NC(=O)[C@H](CCN)NC1=O)[C@@H](C)O [Native Polymyxin A, Polymyxin A] (X1-[Dab]T[dDab][Dab][Dab][dL]T[Dab][Dab]T; lactam 4-C)	B
CC(C)C[C@H]1NC(=O)[C@H](CCN)NC(=O)[C@@H](NC(=O)[C@@H](CCN)NC(=O)[C@@H](NC(=O)[C@H](CCN)NC(=O)[C@H]2C[C@@H]2c2ccccc2)C(C)O)CCNC(=O)[C@H](C(C)O)NC(=O)[C@H](CCN)NC(=O)[C@H](CCN)NC(=O)[C@H](C(C)O)NC1=O (single isomer, unassigned) [Compound 5]	C

====

Test system: K. pneumoniae 933
Test: MIC against the primary screening panel (broth microdilution)
Format: cell-based, Klebsiella pneumoniae
Set-up: key: A: a MIC value measurement that is the same as that observed for polymyxin B; a MIC value measured that is lower than the comparable value observed for polymxin B; a MIC value measured that is higher than the comparable value observed for polymyxin B
Conditions: relative to polymyxin B
reported_endpoint: MIC K. pneumoniae 933

compound	observed_result
CC(C)C[C@H]1NC(=O)[C@H](CCN)NC(=O)[C@@H](NC(=O)[C@@H](CCN)NC(=O)[C@@H](NC(=O)[C@H](CCN)NC(=O)[C@H]2C[C@@H]2c2ccccc2)C(C)O)CCNC(=O)[C@H](C(C)O)NC(=O)[C@H](CCN)NC(=O)[C@H](CCN)NC(=O)[C@H](C(C)O)NC1=O (single isomer, unassigned) [Compound 5]	C
